Here's what we have: pIC50 numbers for D-3-phosphoglycerate dehydrogenase (Homo sapiens, UniProt O43175).
In plain terms, pIC50 is the concentration in mol/L turned into minus its base-10 logarithm.

These solved cases illustrate the format of a correct answer.
[
  {
    "COMPOUND": "Cc1cc(C)nc(NC(=S)N2CC3CN(Cc4ccc(C(F)(F)F)cc4)CC3C2)c1 (stereo not given)",
    "TEST TARGET": "D-3-phosphoglycerate dehydrogenase (Homo sapiens, UniProt O43175)",
    "pIC50": 4.80
  },
  {
    "COMPOUND": "Cc1cc(C)nc(NC(=S)N2CCN(c3ccccn3)CC2)c1",
    "TEST TARGET": "D-3-phosphoglycerate dehydrogenase (Homo sapiens, UniProt O43175)",
    "pIC50": 4.43
  }
]

-- ask What value of pIC50 has been recorded for this entry: Cc1cc(C)nc(NC(=S)N2CCN(Cc3ccncc3)CC2)c1
-- reply 4.23

-- ask Same question for Cc1cc(C)nc(NC(=S)N2CCN(Cc3cccc(Cl)c3)CC2)c1 please.
-- reply 4.96

-- ask // query: Cc1cc(C)nc(NC(=S)N2CCN(C(C)c3ccc(C(F)(F)F)cc3)CC2)c1 (stereo not given)
-- reply 5.10

---

Biological target: D-3-phosphoglycerate dehydrogenase (Homo sapiens) (UniProt O43175)
Experiment: Inhibition of N-terminal His6-tagged human liver PHGDH expressed in Escherichia coli Rosetta (DE3)pLysS at 57 uM using 3-phosphoglycerate as substrate after 20 mins in presence of NAD+ by resazurin fluorescence based PSAT1/diaphorase/PSPH coupled enzyme assay
The following compounds are listed with their measured Imax values.
Number first, unit second: that is the form wanted.

Example entries and their recorded answers appear below.
[
  {
    "MOLECULE": "COc1ccccc1CN1CCN(C(=S)Nc2cc(C)cc(C)n2)CC1",
    "PARAMETER": "Imax",
    "MEASUREMENT": "21%"
  },
  {
    "MOLECULE": "Cc1cc(C)nc(NC(=S)N2C[C@@H](C)N(Cc3ccc(C(F)(F)F)cc3)[C@@H](C)C2)c1",
    "PARAMETER": "Imax",
    "MEASUREMENT": "16%"
  },
  {
    "MOLECULE": "Cc1cccc(NC(=S)N2CCN(c3cccc(C(F)(F)F)c3)CC2)c1",
    "PARAMETER": "Imax",
    "MEASUREMENT": "20%"
  }
]

-- ask Quick one: Imax for Cc1cc(C)nc(NC(=S)N2CCN(c3ccncc3)CC2)c1 ?
-- reply 33%

-- ask Then what about the compound Cc1ccnc(N(C)C(=S)N2CCN(c3cccc(C(F)(F)F)c3)CC2)c1 ?
-- reply 38%

---

Target: UniProtKB O43175
Sequence (O43175 whole entry): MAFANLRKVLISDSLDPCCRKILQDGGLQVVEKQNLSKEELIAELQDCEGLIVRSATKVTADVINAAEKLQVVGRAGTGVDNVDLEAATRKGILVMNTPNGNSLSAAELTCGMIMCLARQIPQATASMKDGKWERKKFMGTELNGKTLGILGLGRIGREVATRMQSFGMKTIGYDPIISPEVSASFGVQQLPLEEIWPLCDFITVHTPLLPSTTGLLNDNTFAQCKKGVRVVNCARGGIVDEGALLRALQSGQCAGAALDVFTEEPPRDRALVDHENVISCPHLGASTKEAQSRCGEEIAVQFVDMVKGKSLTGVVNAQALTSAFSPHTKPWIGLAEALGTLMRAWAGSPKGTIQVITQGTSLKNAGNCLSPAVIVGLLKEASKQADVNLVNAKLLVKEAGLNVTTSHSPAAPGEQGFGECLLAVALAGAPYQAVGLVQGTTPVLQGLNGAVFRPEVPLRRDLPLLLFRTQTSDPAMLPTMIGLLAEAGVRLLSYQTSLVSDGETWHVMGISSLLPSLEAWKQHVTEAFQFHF
The reader will find reported pIC50 values listed item by item below.
Scale: pIC50 equals -log10([C]), with [C] in mol/L.

Previously resolved entries follow.
[
  {
    "COMPOUND": "COc1ccc(CN2CCN(C(=S)Nc3cc(C)cc(C)n3)CC2)cc1",
    "pIC50": 4.59
  },
  {
    "COMPOUND": "Cc1cc(C)nc(NC(=S)N2CCN(Cc3ccc(C(F)(F)F)cc3)C(C)C2)c1 (stereo unspecified)",
    "pIC50": 5.08
  },
  {
    "COMPOUND": "Cc1cc(C)nc(NC(=S)N2CCN(Cc3ccc(F)cc3)CC2)c1",
    "pIC50": 4.42
  },
  {
    "COMPOUND": "Cc1cc(C)nc(NC(=S)N2CCN(Cc3ccccc3Cl)CC2)c1",
    "pIC50": 4.70
  },
  {
    "COMPOUND": "COc1cccc(N2CCN(C(=S)Nc3cc(C)cc(C)n3)CC2)c1",
    "pIC50": 4.85
  }
]

-- ask May I ask what pIC50 has been recorded for Cc1cc(C)nc(NC(=S)N2CCC(NCc3ccc(C(F)(F)F)cc3)CC2)c1 ?
-- reply 4.82

-- ask What about COc1cccc(CN2CCN(C(=S)Nc3cc(C)cc(C)n3)CC2)c1 ?
-- reply 4.52
